Measured values drawn from paper PMC4600319 for this set.

Measured Vd/F, listed per entry for reference.
assayText: Open-label, three-way, sequential, cross-over pharmacokinetic interaction study, plasma, non-compartmental analysis
Type: in vivo, human (healthy Thai adults)
assaySetup: both sexes, human, plasma, oral, LPV/r 400/100 mg twice daily alone (Period 2); median (95 % CI); read-out: Vz/F
propertyLabel: Vd/F (L/kg)

compoundstring=CC(C)c1nc(CN(C)C(=O)N[C@H](C(=O)N[C@@H](Cc2ccccc2)C[C@H](O)[C@H](Cc2ccccc2)NC(=O)OCc2cncs2)C(C)C)cs1 resultunit=L/kg recordednumber=0.97
compoundstring=Cc1cccc(C)c1OCC(=O)N[C@@H](Cc1ccccc1)[C@@H](O)C[C@H](Cc1ccccc1)NC(=O)[C@H](C(C)C)N1CCCNC1=O resultunit=L/kg recordednumber=0.45

* * *

assayText: Open-label, three-way, sequential, cross-over pharmacokinetic interaction study, plasma, non-compartmental analysis
Assay type: in vivo, human (healthy Thai adults)
assaySetup: both sexes, human, plasma, oral, LPV/r 400/100 mg twice daily alone (Period 2); median (95 % CI); read-out: t1/2z (converted)
propertyLabel: half-life

compound="CC(C)c1nc(CN(C)C(=O)N[C@H](C(=O)N[C@@H](Cc2ccccc2)C[C@H](O)[C@H](Cc2ccccc2)NC(=O)OCc2cncs2)C(C)C)cs1 [Ritonavir, ritonavir]" result="4.3 h"
compound="Cc1cccc(C)c1OCC(=O)N[C@@H](Cc1ccccc1)[C@@H](O)C[C@H](Cc1ccccc1)NC(=O)[C@H](C(C)C)N1CCCNC1=O [Lopinavir, lopinavir]" result="9.8 h"

* * *

assayText: Open-label, three-way, sequential, cross-over pharmacokinetic interaction study, plasma, non-compartmental analysis
Assay type: in vivo, human (healthy Thai adults)
assaySetup: both sexes, human, plasma, oral, 3-day artesunate-mefloquine alone (Period 1); median (95 % CI); read-out: Vz/F
propertyLabel: Vd/F (L/kg)

molecule="OC(c1cc(C(F)(F)F)nc2c(C(F)(F)F)cccc12)C1CCCCN1 (stereo not shown) [Mefloquine, mefloquine]" resultunit=L/kg recordednumber=9.24

* * *

Listed here are molecules together with their documented AUC(0-inf).
assayText: Open-label, three-way, sequential, cross-over pharmacokinetic interaction study, plasma, non-compartmental analysis
Type: in vivo, human (healthy Thai adults)
assaySetup: both sexes, human, plasma, oral, LPV/r with 3-day artesunate-mefloquine (Period 3); median (95 % CI)
propertyLabel: AUC(0-inf) (ng·h/mL)

molecule="Cc1cccc(C)c1OCC(=O)N[C@@H](Cc1ccccc1)[C@@H](O)C[C@H](Cc1ccccc1)NC(=O)[C@H](C(C)C)N1CCCNC1=O [Lopinavir, lopinavir]" recordednumber=130000
molecule="CC(C)c1nc(CN(C)C(=O)N[C@H](C(=O)N[C@@H](Cc2ccccc2)C[C@H](O)[C@H](Cc2ccccc2)NC(=O)OCc2cncs2)C(C)C)cs1 [Ritonavir, ritonavir]" recordednumber=4710

* * *

assayText: Open-label, three-way, sequential, cross-over pharmacokinetic interaction study, plasma, non-compartmental analysis
Type: in vivo, human (healthy Thai adults)
assaySetup: both sexes, human; 3-day artesunate-mefloquine alone (Period 1), oral, plasma; median (95 % CI); read-out: tmax
propertyLabel: Tmax (h)

molecule="C[C@H]1[C@@H](O)O[C@@H]2O[C@@]3(C)CC[C@H]4[C@H](C)CC[C@@H]1[C@@]24OO3 [Dihydroartemisinin, dihydroartemisinin]" recordednumber=2
molecule="C[C@H]1[C@H](OC(=O)CCC(=O)O)O[C@@H]2O[C@@]3(C)CC[C@H]4[C@H](C)CC[C@@H]1[C@@]24OO3 [Artesunate, artesunate]" recordednumber=1
molecule="OC(c1cc(C(F)(F)F)nc2c(C(F)(F)F)cccc12)C1CCCCN1 (stereo not drawn)" recordednumber=33

* * *

assayText: Open-label, three-way, sequential, cross-over pharmacokinetic interaction study, plasma, non-compartmental analysis
Assay type: in vivo, human (healthy Thai adults)
assaySetup: both sexes, human, plasma, oral, LPV/r with 3-day artesunate-mefloquine (Period 3), plasma; median (95 % CI); read-out: AUC0–12h
Method: This was an open-label, three-way, sequential, cross-over, pharmacokinetic study in healthy adult volunteers. […] Written informed consent for study participation was obtained from each subject before study. […] Pharmacokinetic parameters were determined using a non-compartmental analysis using WinNonLin software (version 6.3, […], USA). […] The Cmax (maximum concentration); tmax (time of maximum concentration) were determined by direct inspection of the plasma concentration-time data. […]
Catalogue of AUC(0-t) readings, one per entry.
propertyLabel: AUC(0-t) (ng·h/mL)

molecule="Cc1cccc(C)c1OCC(=O)N[C@@H](Cc1ccccc1)[C@@H](O)C[C@H](Cc1ccccc1)NC(=O)[C@H](C(C)C)N1CCCNC1=O [Lopinavir, lopinavir]" recordednumber=90500
molecule="CC(C)c1nc(CN(C)C(=O)N[C@H](C(=O)N[C@@H](Cc2ccccc2)C[C@H](O)[C@H](Cc2ccccc2)NC(=O)OCc2cncs2)C(C)C)cs1 [Ritonavir, ritonavir]" recordednumber=4490

* * *

assayText: Open-label, three-way, sequential, cross-over pharmacokinetic interaction study, plasma, non-compartmental analysis
Format: in vivo, human (healthy Thai adults)
assaySetup: both sexes, human, plasma, oral, 3-day artesunate-mefloquine with LPV/r (Period 3), plasma; median (95 % CI); read-out: AUC0–48h
propertyLabel: AUC(0-t)

compound="OC(c1cc(C(F)(F)F)nc2c(C(F)(F)F)cccc12)C1CCCCN1 (stereo not shown)" result="678 µg·h/mL"

* * *

assayText: Open-label, three-way, sequential, cross-over pharmacokinetic interaction study, plasma, non-compartmental analysis
Type: in vivo, human (healthy Thai adults)
assaySetup: both sexes, human, plasma, oral, 3-day artesunate-mefloquine alone (Period 1), plasma; median (95 % CI); read-out: t1/2z (converted)
propertyLabel: half-life (h)

molecule="C[C@H]1[C@@H](O)O[C@@H]2O[C@@]3(C)CC[C@H]4[C@H](C)CC[C@@H]1[C@@]24OO3 [Dihydroartemisinin, dihydroartemisinin]" propertylabel=half-life resultunit=h recordednumber=4.02
molecule="OC(c1cc(C(F)(F)F)nc2c(C(F)(F)F)cccc12)C1CCCCN1 (centres unmarked)" propertylabel=half-life resultunit=h recordednumber=344

* * *

assayText: Open-label, three-way, sequential, cross-over pharmacokinetic interaction study, plasma, non-compartmental analysis
Type: in vivo, human (healthy Thai adults)
assaySetup: both sexes, human, plasma, oral, 3-day artesunate-mefloquine with LPV/r (Period 3); median (95 % CI)
# key: entry, value: AUC(0-inf)
propertyLabel: AUC(0-inf) (µg·h/mL)

compound="OC(c1cc(C(F)(F)F)nc2c(C(F)(F)F)cccc12)C1CCCCN1 (centres unmarked)" recordednumber=751
compound="C[C@H]1[C@@H](O)O[C@@H]2O[C@@]3(C)CC[C@H]4[C@H](C)CC[C@@H]1[C@@]24OO3 [Dihydroartemisinin, dihydroartemisinin]" recordednumber=1.37

* * *

assayText: Open-label, three-way, sequential, cross-over pharmacokinetic interaction study, plasma, non-compartmental analysis
Format: in vivo, human (healthy Thai adults)
assaySetup: both sexes, human, plasma, oral, 3-day artesunate-mefloquine with LPV/r (Period 3), plasma; median (95 % CI); read-out: Cmax
propertyLabel: Cmax (ng/mL)

compound="OC(c1cc(C(F)(F)F)nc2c(C(F)(F)F)cccc12)C1CCCCN1 (stereo not drawn) [Mefloquine, mefloquine]" propertylabel=Cmax recordednumber=2340
compound="C[C@H]1[C@@H](O)O[C@@H]2O[C@@]3(C)CC[C@H]4[C@H](C)CC[C@@H]1[C@@]24OO3 [Dihydroartemisinin, dihydroartemisinin]" propertylabel=Cmax recordednumber=310
compound="C[C@H]1[C@H](OC(=O)CCC(=O)O)O[C@@H]2O[C@@]3(C)CC[C@H]4[C@H](C)CC[C@@H]1[C@@]24OO3 [Artesunate, artesunate]" propertylabel=Cmax recordednumber=140

* * *

assayText: Open-label, three-way, sequential, cross-over pharmacokinetic interaction study, plasma, non-compartmental analysis
Type: in vivo, human (healthy Thai adults)
assaySetup: both sexes, human, plasma, oral, 3-day artesunate-mefloquine with LPV/r (Period 3); median (95 % CI); read-out: Vz/F
propertyLabel: Vd/F

compound="OC(c1cc(C(F)(F)F)nc2c(C(F)(F)F)cccc12)C1CCCCN1 (stereo not shown)" propertylabel=Vd/F result="12.8 L/kg"

* * *

assayText: Open-label, three-way, sequential, cross-over pharmacokinetic interaction study, plasma, non-compartmental analysis
Format: in vivo, human (healthy Thai adults)
assaySetup: both sexes, human, plasma, oral, LPV/r with 3-day artesunate-mefloquine (Period 3); median (95 % CI); read-out: Vz/F
Overview of reported Vd/F across a group of compounds:
propertyLabel: Vd/F (L/kg)

compoundstring=CC(C)c1nc(CN(C)C(=O)N[C@H](C(=O)N[C@@H](Cc2ccccc2)C[C@H](O)[C@H](Cc2ccccc2)NC(=O)OCc2cncs2)C(C)C)cs1 propertylabel=Vd/F recordednumber=1.75
compoundstring=Cc1cccc(C)c1OCC(=O)N[C@@H](Cc1ccccc1)[C@@H](O)C[C@H](Cc1ccccc1)NC(=O)[C@H](C(C)C)N1CCCNC1=O propertylabel=Vd/F recordednumber=0.53

* * *

Tmax for assorted compounds
assayText: Open-label, three-way, sequential, cross-over pharmacokinetic interaction study, plasma, non-compartmental analysis
Type: in vivo, human (healthy Thai adults)
assaySetup: both sexes, human, oral; 3-day artesunate-mefloquine with LPV/r 400/100 mg twice a day (Period 3), plasma; median (95 % CI); read-out: tmax
propertyLabel: Tmax (h)

compound="C[C@H]1[C@@H](O)O[C@@H]2O[C@@]3(C)CC[C@H]4[C@H](C)CC[C@@H]1[C@@]24OO3 [Dihydroartemisinin, dihydroartemisinin]" propertylabel=Tmax recordednumber=2
compound="C[C@H]1[C@H](OC(=O)CCC(=O)O)O[C@@H]2O[C@@]3(C)CC[C@H]4[C@H](C)CC[C@@H]1[C@@]24OO3 [Artesunate, artesunate]" propertylabel=Tmax recordednumber=1
compound="OC(c1cc(C(F)(F)F)nc2c(C(F)(F)F)cccc12)C1CCCCN1 (stereo not drawn)" propertylabel=Tmax recordednumber=33
